Quick reference for Mean NFκB response among some compounds
System: NF-κB activity in HEK293 NF-κB reporter cells
Experiment: NF-kB activity assay (GFP reporter, ionomycin/PMA)
Type: cell-based
Conditions: 1 µM, 15 h, n=3

Answered examples (3):
Cc1ccc2c(NC[C@](O)(CC(C)(C)c3cc(F)cc4c3OCC4)C(F)(F)F)cccc2n1; 17560.00 GFP+-cells/confluence ∙ 1000
C[C@]12CC[C@@H]3c4ccc(O)cc4C[C@@H](CCCCCCCCC[S+]([O-])CCCC(F)(F)C(F)(F)F)[C@H]3[C@@H]1CC[C@@H]2O (stereo partly shown); 8097.95 GFP+-cells/confluence ∙ 1000
Oc1ccc(-c2c(-c3ccccc3)nn3c(C(F)(F)F)cc(C(F)(F)F)nc23)cc1; 29343.33 GFP+-cells/confluence ∙ 1000

So what does the record say about Mean NFκB response for CC(=O)Nc1ccc(OC[C@](C)(O)C(=O)Nc2ccc([N+](=O)[O-])c(C(F)(F)F)c2)cc1 ?
13144.54 GFP+-cells/confluence ∙ 1000

// returns reported Mean NFκB response for input CC(=O)O[C@]1(C(C)=O)CC[C@H]2[C@@H]3C=C(Cl)C4=CC(=O)[C@@H]5C[C@@H]5[C@]4(C)[C@H]3CC[C@@]21C [Cyproterone acetate]
31392.99 GFP+-cells/confluence ∙ 1000

Given COc1cccc([C@@H](Oc2ccc3c(cnn3-c3ccc(F)cc3)c2)[C@H](C)NC(=O)C(F)(F)F)c1 , state its recorded Mean NFκB response.
19223.33 GFP+-cells/confluence ∙ 1000

Which Mean NFκB response value belongs to Oc1ccc(-c2nc3cc(O)cc(Br)c3o2)cc1 ?
31227.07 GFP+-cells/confluence ∙ 1000

----------
Target: TRIM24 (Homo sapiens, UniProt O15164)
Construct: This panel comprised ten highly ligandable kinases and bromodomains; made in house
Sequence (O15164 899-1004 limits assumed, species assumed): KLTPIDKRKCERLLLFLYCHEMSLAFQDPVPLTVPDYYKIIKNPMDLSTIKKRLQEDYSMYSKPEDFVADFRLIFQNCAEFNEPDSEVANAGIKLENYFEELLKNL
Test: Liability panel screening by DSF: TRIM24
Assay type: binding
Settings: DSF, 20 µM, n=2; read-out: Mean ΔTM TRIM24
Record Criterion met whenever ΔTm at 20 µM is at -0.9 °C or higher; record Criterion not met when lower.

// known answers, use as guide
C#C[C@]1(O)CC[C@H]2[C@@H]3CCc4cc(O)ccc4[C@H]3CC[C@@]21C [Ethinylestradiol]; Criterion not met
CC/C(=C(/c1ccc(/C=C/C(=O)O)cc1)c1ccc2[nH]ncc2c1)c1ccc(F)cc1Cl [ARN810]; Criterion met
CCN(CC)c1ccc(/C=N/NC(=O)c2ccc(O)cc2)cc1 [DY131]; Criterion not met
CC/C(=C(\c1ccc(O)cc1)c1ccc(OCCN(C)C)cc1)c1ccccc1 [(Z)-4-Hydroxytamoxifen]; Criterion met
CC(C)(c1ccc(O)cc1)c1ccc(O)cc1 [Bisphenol A]; Criterion not met

Has Oc1ccc(-c2c(-c3ccccc3)nn3c(C(F)(F)F)cc(C(F)(F)F)nc23)cc1 [PHTPP] a recorded ΔTm at 20 µM greater than or equal to -0.9 °C?
Criterion met

Identify whether the reported ΔTm at 20 µM of the following molecule is -0.9 °C or greater: CN(C)CCOc1ccc(/C(=C(/CCCO)c2ccccc2)c2ccc(O)cc2)cc1 [GSK5182]
Criterion met

Could you please find out whether CC(=O)O[C@]1(C(C)=O)CC[C@H]2[C@@H]3CCC4=CC(=O)CCC4=C3[C@@H](c3ccc(N(C)C)cc3)C[C@@]21C [Ulipristal acetate] has ΔTm at 20 µM that meets -0.9 °C or exceeds it?
Criterion not met

Has CC/C(=C(/CC)c1ccc(O)cc1)c1ccc(O)cc1 [Diethylstilbestrol] a recorded ΔTm at 20 µM greater than or equal to -0.9 °C?
Criterion met

Decide: ΔTm at 20 µM of COc1cc(/C=C(\C#N)C(=O)Nc2nnc(C(F)(F)F)s2)ccc1OCc1ccc(C(F)(F)F)cc1C(F)(F)F [XCT790] >= -0.9 °C?
Criterion met

# bool: ΔTm at 20 µM of Cc1c(N2C(=O)C3C(O)CCN3C2=O)ccc(C#N)c1Cl (stereo not shown) [BMS564929] >= -0.9 °C
Criterion met

Is it the case that CCCC1O[C@@H]2C[C@H]3[C@@H]4CCC5=CC(=O)C=C[C@]5(C)[C@H]4[C@@H](O)C[C@]3(C)[C@]2(C(=O)CO)O1 (stereo partly shown) [Budesonide] has ΔTm at 20 µM reaching or exceeding -0.9 °C?
Criterion met

Confirm if ΔTm at 20 µM reported for the molecule CC(=O)O[C@]1(C(C)=O)CC[C@H]2[C@@H]3C=C(Cl)C4=CC(=O)[C@@H]5C[C@@H]5[C@]4(C)[C@H]3CC[C@@]21C [Cyproterone acetate] is -0.9 °C or above.
Criterion not met

Tell me whether ΔTm at 20 µM is at least -0.9 °C here: O=C(/C=C/c1ccc(O)cc1)c1ccc(O)cc1O [Isoliquiritigenin]
Criterion met

----------
Target: CDK2 (Homo sapiens, UniProt P24941)
Construct: made in house
Assay: Liability panel screening by DSF: CDK2
Type: binding
Details: DSF, 20 µM, n=2; read-out: Mean ΔTM CDK2
ΔTm at 20 µM: recorded values

Previously resolved entries follow.
Cc1c(-c2ccc(O)cc2)n(Cc2ccc(OCCN3CCCCCC3)cc2)c2ccc(O)cc12; -0.64 °C
CC#C[C@]1(O)CC[C@H]2[C@@H]3CCC4=CC(=O)CCC4=C3[C@@H](c3ccc(N(C)C)cc3)C[C@@]21C; -0.0248 °C
Cc1c(N2C(=O)C3C(O)CCN3C2=O)ccc(C#N)c1Cl (centres unmarked); 0.04 °C
CC(C)c1ccc(/C=N/NC(=O)c2ccc(O)cc2)cc1; 1.04 °C
COC(=O)[C@@H]1CC2=CC(=O)CC[C@]2(C)[C@@]23O[C@@H]2C[C@@]2(C)[C@@H](CC[C@@]24CCC(=O)O4)[C@H]13; -0.21 °C
CC(=O)O[C@]1(C(C)=O)CC[C@H]2[C@@H]3CCC4=CC(=O)CCC4=C3[C@@H](c3ccc(N(C)C)cc3)C[C@@]21C [Ulipristal acetate]; -0.32 °C

For the molecule CCCC1O[C@@H]2C[C@H]3[C@@H]4CCC5=CC(=O)C=C[C@]5(C)[C@H]4[C@@H](O)C[C@]3(C)[C@]2(C(=O)CO)O1 (some centres unmarked) [Budesonide] , what ΔTm at 20 µM is on record?
0.00668 °C

Quick one: ΔTm at 20 µM of COc1ccc2c(c1)OC(C)(C)C(c1ccccc1)C2c1ccc(OCCN2CCCC2)cc1 (centres unmarked) ?
-2.04 °C

Any idea what ΔTm at 20 µM was measured for O=C(/C=C/c1ccc(O)cc1)c1ccc(O)cc1O ?
1.64 °C

Give the measured ΔTm at 20 µM of CCC(=O)O[C@]1(C(=O)SCF)[C@H](C)C[C@H]2[C@@H]3C[C@H](F)C4=CC(=O)C=C[C@]4(C)[C@@]3(F)[C@@H](O)C[C@@]21C [Fluticasone propionate] .
0.15 °C

Quick one: ΔTm at 20 µM for N#CC(Cc1ccc(O)cc1)c1ccc(O)cc1 (centres unmarked) ?
0.74 °C

Which ΔTm at 20 µM value belongs to C[C@]12CCC(=O)C=C1CC[C@@H]1[C@@H]2[C@@H](O)C[C@]2(C=O)[C@@H](C(=O)CO)CC[C@@H]12 ?
-0.06 °C

What measured ΔTm at 20 µM goes with C[C@H]1C[C@H]2[C@@H]3CCC4=CC(=O)C=C[C@]4(C)[C@@]3(Cl)[C@@H](O)C[C@]2(C)[C@@]1(O)C(=O)CO ?
-0.29 °C

Look up ΔTm at 20 µM for this molecule: COc1cccc([C@@H](Oc2ccc3c(cnn3-c3ccc(F)cc3)c2)[C@H](C)NC(=O)C(F)(F)F)c1
-0.35 °C

----------
Recorded ΔTm at 20 µM values for a group of molecules are listed next.
Molecular target: ABL1 (Homo sapiens, UniProt P00519)
Construct: made in house
Sequence (P00519 whole entry, species assumed): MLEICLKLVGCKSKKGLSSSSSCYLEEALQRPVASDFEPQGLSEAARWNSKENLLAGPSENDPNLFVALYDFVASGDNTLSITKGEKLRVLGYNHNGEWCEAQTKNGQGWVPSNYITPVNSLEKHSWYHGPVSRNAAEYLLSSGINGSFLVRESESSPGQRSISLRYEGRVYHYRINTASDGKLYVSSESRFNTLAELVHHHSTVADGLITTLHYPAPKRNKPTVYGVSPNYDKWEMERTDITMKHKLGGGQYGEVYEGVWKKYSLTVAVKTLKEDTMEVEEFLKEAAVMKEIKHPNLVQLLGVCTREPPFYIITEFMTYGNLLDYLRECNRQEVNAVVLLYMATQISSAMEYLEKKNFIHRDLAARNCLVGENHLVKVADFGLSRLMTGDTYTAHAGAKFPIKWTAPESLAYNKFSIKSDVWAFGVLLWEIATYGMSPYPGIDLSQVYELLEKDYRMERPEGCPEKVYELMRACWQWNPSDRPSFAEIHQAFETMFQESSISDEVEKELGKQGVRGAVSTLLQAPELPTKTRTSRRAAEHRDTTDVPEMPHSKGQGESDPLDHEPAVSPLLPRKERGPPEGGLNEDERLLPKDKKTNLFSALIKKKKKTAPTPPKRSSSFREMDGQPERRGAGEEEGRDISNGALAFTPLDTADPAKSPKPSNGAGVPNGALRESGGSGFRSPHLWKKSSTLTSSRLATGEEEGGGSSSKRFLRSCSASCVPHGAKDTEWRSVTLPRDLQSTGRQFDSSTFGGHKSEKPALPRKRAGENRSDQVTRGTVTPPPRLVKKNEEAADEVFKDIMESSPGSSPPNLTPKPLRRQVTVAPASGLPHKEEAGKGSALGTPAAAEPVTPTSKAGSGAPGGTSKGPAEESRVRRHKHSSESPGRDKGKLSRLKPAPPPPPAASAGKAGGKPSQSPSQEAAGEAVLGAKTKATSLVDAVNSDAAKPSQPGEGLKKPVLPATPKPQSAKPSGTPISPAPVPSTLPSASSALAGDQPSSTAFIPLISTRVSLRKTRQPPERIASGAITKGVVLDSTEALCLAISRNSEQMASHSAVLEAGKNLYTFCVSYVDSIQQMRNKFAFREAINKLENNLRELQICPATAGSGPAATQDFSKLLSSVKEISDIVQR
Assay: Liability panel screening by DSF: ABL1
Format: binding
Conditions: DSF, 20 µM, n=2; read-out: Mean ΔTM ABL1
Report the value in °C with no unit label.

CC(=O)O[C@]1(C(C)=O)CC[C@H]2[C@@H]3CCC4=CC(=O)CCC4=C3[C@@H](c3ccc(N(C)C)cc3)C[C@@]21C [Ulipristal acetate]; 0.29
C[C@@H]1Cc2c([nH]c3ccccc23)[C@@H](c2c(F)cc(/C=C/C(=O)O)cc2F)N1CC(C)(C)F; -0.24
CC(=O)O[C@]1(C(C)=O)CC[C@H]2[C@@H]3C=C(Cl)C4=CC(=O)[C@@H]5C[C@@H]5[C@]4(C)[C@H]3CC[C@@]21C [Cyproterone acetate]; 0.36
C[C@]12CC[C@@H]3c4ccc(O)cc4C[C@@H](CCCCCCCCC[S+]([O-])CCCC(F)(F)C(F)(F)F)[C@H]3[C@@H]1CC[C@@H]2O (stereo partly drawn); -4.09
COC(=O)[C@@H]1CC2=CC(=O)CC[C@]2(C)[C@@]23O[C@@H]2C[C@@]2(C)[C@@H](CC[C@@]24CCC(=O)O4)[C@H]13; 0.55

Below: the item to evaluate.
Please report the recorded ΔTm at 20 µM for Oc1ccc(-c2c(-c3ccccc3)nn3c(C(F)(F)F)cc(C(F)(F)F)nc23)cc1 .
2.06
